The values you see were collected from ChEMBL document CHEMBL4270599.

# System: SF-268
# method: Cytotoxicity against human SF268 cells after 48 hrs by SRB assay
# Type: functional
# experimental_setup: SF-268, 48 h, read-out: TGI
Listed here: items and their measured TGI.
property_measured: TGI

structure_notation=C#C[C@@]1(O)[C@@H](CO)O[C@@H](n2cc(Cl)c3c(N)ncnc32)[C@@H]1O measured="14.4 to 31.1 µM"
structure_notation=C#C[C@@]1(O)[C@@H](CO)O[C@@H](n2cc(I)c3c(N)ncnc32)[C@@H]1O measured="32.2 to 77.3 µM"
structure_notation=C#C[C@@]1(O)[C@@H](CO)O[C@@H](n2cc(Br)c3c(N)ncnc32)[C@@H]1O measured="33.2 to 80.6 µM"
